experimental.details: qHTS assay for identifying genotoxic compounds that show differential cytotoxicity against isogenic chicken DT40 cell lines with known DNA damage response pathways - Rad54/Ku70 mutant cell line (AID 743015); note: nearly all actives have a fitted effect of over 60% in size
experimental.setup: DT40 Rad54/Ku70 mutant viability, CellTiter-Glo, 40 h; series mostly up to 66.8 µM
Records with an inconclusive call do not appear. The source made the active and inactive calls. Calls come from the whole dose curve; as a rule, active = well fitted cell-killing curve with a large enough effect in the repeat runs; inconclusive = weak or mixed curves; inactive = no such curve, though single readings can be large or run the other way.
Possible outcomes: active, inactive

compound	group
COc1c(N2CCNC(C)C2)c(F)cc2c(=O)c(C(=O)O)cn(C3CC3)c12 (stereo unspecified)	inactive
COCCOC[C@H](CC1(C(=O)NC2CCC(C(=O)O)CC2)CCCC1)C(=O)Oc1ccc2c(c1)CCC2 (stereo partly specified)	inactive
COc1ccnc(CS(=O)c2nc3cc(OC(F)F)ccc3[nH]2)c1OC (stereo unspecified)	inactive
CC(C)(N)C#N	inactive
CC(C)(C)c1ccc(-c2ccc(C(C)(C)C)cc2)cc1	inactive
C[C@@H]1CCC[C@H](C)N1	inactive
O=C(CO)[C@@H](O)[C@H](O)[C@H](O)CO	inactive
CCCCN(CCC(=O)OCC)C(C)=O	inactive
CC1=NS(=O)(=O)c2cc(Cl)ccc2N1	inactive
CC(C)(CCC(=O)O)C(=O)O	inactive
CCN(Cc1ccccc1)c1ccccc1	inactive
O=C1CCCCCCCCCCCCCCO1	inactive
CCOC(=O)COC(=O)c1ccccc1C(=O)OCC	inactive
CC(C)NNC(=O)c1ccncc1	inactive
c1coc(CNc2ncnc3nc[nH]c23)c1	active
CC(=O)c1ccccc1[N+](=O)[O-]	inactive
C=COC(=O)C(C)(CC)CCC(C)C (stereo unspecified)	inactive
CCN(C=O)CC	inactive
CC(=O)O[C@@]12CO[C@@H]1C[C@H](O)[C@@]1(C)C(=O)[C@H](O)C3=C(C)[C@@H](OC(=O)[C@H](O)[C@@H](NC(=O)OC(C)(C)C)c4ccccc4)C[C@@](O)([C@@H](OC(=O)c4ccccc4)[C@H]21)C3(C)C	active
CC1=CC(=O)[C@H]2C[C@@H]1C2(C)C	inactive
[K+]	inactive
CCCCCCCCCCCCCCCCCCO	inactive
CCCn1cc[n+](C)c1C	inactive
O=S(=O)(O)c1cccc2ccccc12	inactive
CC1(C)OC[C@@H](COC(=O)CCc2ccc(OC[C@@H](O)CNCCNC(=O)N3CCOCC3)cc2)O1	inactive
N[C@H](C(=O)O)[C@@H](O)c1ccc(O)c(O)c1	active
